- Experimental protocol: qHTS assay for identifying genotoxic compounds that show differential cytotoxicity against isogenic chicken DT40 cell lines with known DNA damage response pathways - wild type cell line (AID 743012); also: nearly all actives have a fitted effect of over 60% in size
- Run parameters: DT40 wild type chicken cells viability, CellTiter-Glo, 40 h; series mostly up to 68.4 µM
Results filed as inconclusive are left out. Activity calls are given as the source filed them. Calls follow the shape of the dose curve; as a rule, active = well fitted cell-killing curve with a large enough effect in the repeat runs; inconclusive = weak or mixed curves, or effect the other way; inactive = no such curve, though single readings can be large or run the other way.
The reply should be one of these categories: yes = active, no = inactive

Assay result, entry CCCCOCC(C)O (centres undefined) — outcome?
no

Assay result, entry "CC(C)OC(=O)CCC(=O)OC(C)C" — outcome?
no

Assay result, entry CCC(C)OC(C)CC (centres undefined) — outcome?
no

Assay result, entry "N#CCC(=O)NN" — outcome?
no

Assay result, entry CCC(C)C(C)=O (centres undefined) — outcome?
no

Assay result, entry "CCOCCOCC" — outcome?
no

Assay result, entry CC1CCc2c(N3CCC(O)CC3)c(F)cc3c(=O)c(C(=O)O)cn1c23 (centres undefined) — outcome?
yes

Assay result, entry "CCNC(=O)NCc1cccc(Cl)c1" — outcome?
no

Assay result, entry "Cc1ccc(C(=O)O)cc1[N+](=O)[O-]" — outcome?
no

Assay result, entry "NCCOCCN" — outcome?
no

Assay result, entry "C[C@H]1[C@@H](c2ccccc2)NC(=O)N1C" — outcome?
no

Assay result, entry "COc1ccc(CCO)cc1" — outcome?
no

Assay result, entry "CCCC(=O)OC/C=C(\C)CCC=C(C)C" — outcome?
no

Assay result, entry "Cc1ccc2c(c1)C(=O)c1ccccc1C2=O" — outcome?
yes

###

- Experimental protocol: qHTS assay to identify aromatase inhibitors - cell viability counter screen (AID 743084);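 also: cells stimulated with testosterone during compound exposure; nearly all actives have a fitted effect of over 55% in size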
- Run parameters: MCF-7 aro ERE viability, CellTiter-Fluor, 24 h; series mostly up to 70.3 µM
Records with an inconclusive call do not appear. Activity calls are given as the source filed them. The call rests on the fitted dose curve; in most records, active means well fitted cell-killing curve with a large enough effect in the repeat runs; inconclusive means weak or mixed curves, or effect the other way; inactive means no such curve, though single readings can be large or run the other way.
Recorded metric: activity change, negative = cytotoxicity

1) C/C(CC(C)C)=N\O: inactive
2) CC(=O)CC(=O)Nc1ccc(C)cc1C: inactive
3) CC(C)OC(=O)OCOP(=O)(CO[C@H](C)Cn1cnc2c(N)ncnc21)OCOC(=O)OC(C)C: inactive
4) CC1=NN(c2ccc(S(=O)(=O)O)cc2)C(=O)C1: inactive
5) COc1nc(N)nc2nc[nH]c12: inactive
6) CC(C)(CO)C(O)C(=O)NCCCO (configuration not stated): inactive

Read off the recorded activity change, negative = cytotoxicity for "CCNC(=O)NCc1cccc(Cl)c1"
inactive

Read off the recorded activity change, negative = cytotoxicity for "C=CCCCCCCCCC(=O)OCCCC"
inactive

Read off the recorded activity change, negative = cytotoxicity for "Cn1nnc2c(C(N)=O)ncn2c1=O"
inactive

Read off the recorded activity change, negative = cytotoxicity for "C[C@@H](O)C(=O)O"
inactive

Read off the recorded activity change, negative = cytotoxicity for "COC(=O)c1ccccc1C(=O)O"
inactive

Read off the recorded activity change, negative = cytotoxicity for "COc1ccc2c(c1)c1c3n2CCN(C)C3=NCC1"
inactive

###

- Tested on: Nuclear receptor subfamily 1 group I member 2 (Homo sapiens) (UniProt O75469)
- Sequence (O75469 whole entry, looked up): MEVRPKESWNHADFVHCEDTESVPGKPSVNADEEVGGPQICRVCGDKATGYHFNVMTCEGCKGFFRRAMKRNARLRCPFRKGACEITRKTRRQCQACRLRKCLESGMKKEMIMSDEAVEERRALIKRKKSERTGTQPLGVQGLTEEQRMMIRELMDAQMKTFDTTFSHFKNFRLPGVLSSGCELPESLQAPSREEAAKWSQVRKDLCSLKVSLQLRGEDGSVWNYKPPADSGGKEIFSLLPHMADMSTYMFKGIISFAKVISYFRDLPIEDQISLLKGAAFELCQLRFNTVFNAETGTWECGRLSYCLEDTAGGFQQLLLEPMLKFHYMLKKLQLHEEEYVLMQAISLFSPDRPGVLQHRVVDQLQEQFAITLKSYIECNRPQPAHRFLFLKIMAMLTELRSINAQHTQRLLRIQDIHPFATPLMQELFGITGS
- Experimental protocol: Human pregnane X receptor (PXR) small molecule agonists, qHTS assay (AID 1346982); also: nearly all actives have a fitted effect of over 35% in size
- Run parameters: PXR-Luc HepG2, CYP3A4 luciferase reporter, 24 h; series mostly up to 92.4 µM
- Excerpt: National Center for Advancing Translational Sciences [NCATS] NIH Chemical Genomics Center [NCGC] U.S. Environmental Protection Agency [EPA] National Institutes of Environmental Health Sciences [NIEHS] National Toxicology Program [NTP] The human pregnane X receptor (hPXR) regulates the expression of several drug metabolizing enzymes and induction of these proteins is a major mechanism for developing drug resistance in cancer. […]
Inconclusive results are not listed. Calls of active or inactive are those of the source. The call rests on the fitted dose curve; in most records, active means well fitted activation curve with a large enough effect in the repeat runs; inconclusive means weak or mixed curves; inactive means no such curve, though single readings can be large or run the other way.
The reply should be one of these categories: y = active, n = inactive

Assay result, entry "CCCCCCCCCOC(=O)CCCCC(=O)OCCCCCCC" — outcome?
n

Assay result, entry "CCO" — outcome?
n

Assay result, entry "C=CC(=O)CCCCC" — outcome?
n

Assay result, entry "C=CCCCCCCCC" — outcome?
n

Assay result, entry "CCCCCc1cccc(=O)o1" — outcome?
n

Assay result, entry CCCCCCCCCCCCCCC(=O)NC(CO)CCCCCCCCCCCCCC (stereo not given) — outcome?
n

Assay result, entry CC(=O)OC1CCCCC1C(C)(C)C (stereo not given) — outcome?
n

Assay result, entry "N#Cc1cscn1" — outcome?
n

Assay result, entry CC(O)COC(C)(C)C (stereo not given) — outcome?
n

Assay result, entry "CCC(=O)CC" — outcome?
n

Assay result, entry "CC(=O)O[C@H]1C[C@@H]2CC[C@@]1(C)C2(C)C" — outcome?
n

Assay result, entry CCCCCC(C)O (stereo not given) — outcome?
n

Assay result, entry "CC(C)CO" — outcome?
n

Assay result, entry CC1=C(O)C(=O)C(C)O1 (stereo not given) — outcome?
n

Assay result, entry "CC(C)Cn1cnc2c1c(=O)n(C)c(=O)n2C" — outcome?
n

Assay result, entry "CSc1cnccn1" — outcome?
n

Assay result, entry C=C(C)C1CC=C(C)C(=O)C1 (stereo not given) — outcome?
n

Assay result, entry "Cc1ccnc(N)c1" — outcome?
n

Assay result, entry "Cc1ccc(C)c([N+](=O)[O-])c1" — outcome?
n

Assay result, entry "CC(C)=CCC[C@@](C)(O)[C@H]1CC=C(C)CC1" — outcome?
y

Assay result, entry "OCCN1CCOCC1" — outcome?
n

Assay result, entry "CCC[C@@H]1C[C@@H](C(=O)N[C@@H]([C@H]2O[C@H](SC)[C@H](O)[C@@H](O)[C@H]2O)[C@@H](C)O)N(C)C1" — outcome?
n

Assay result, entry "Cc1cc(-c2ccccc2)nnc1NCCN1CCOCC1" — outcome?
n

Assay result, entry Cc1ccc(C(C)NC(=O)[C@@H](NC(=O)OC(C)C)C(C)C)cc1 (stereo not given in full) — outcome?
y

Assay result, entry "O=Cc1cc2ccccc2o1" — outcome?
n

###

- Tested on: Voltage-gated inwardly rectifying potassium channel KCNH2 (Homo sapiens) (UniProt Q12809)
- Sequence (Q12809 whole entry, looked up): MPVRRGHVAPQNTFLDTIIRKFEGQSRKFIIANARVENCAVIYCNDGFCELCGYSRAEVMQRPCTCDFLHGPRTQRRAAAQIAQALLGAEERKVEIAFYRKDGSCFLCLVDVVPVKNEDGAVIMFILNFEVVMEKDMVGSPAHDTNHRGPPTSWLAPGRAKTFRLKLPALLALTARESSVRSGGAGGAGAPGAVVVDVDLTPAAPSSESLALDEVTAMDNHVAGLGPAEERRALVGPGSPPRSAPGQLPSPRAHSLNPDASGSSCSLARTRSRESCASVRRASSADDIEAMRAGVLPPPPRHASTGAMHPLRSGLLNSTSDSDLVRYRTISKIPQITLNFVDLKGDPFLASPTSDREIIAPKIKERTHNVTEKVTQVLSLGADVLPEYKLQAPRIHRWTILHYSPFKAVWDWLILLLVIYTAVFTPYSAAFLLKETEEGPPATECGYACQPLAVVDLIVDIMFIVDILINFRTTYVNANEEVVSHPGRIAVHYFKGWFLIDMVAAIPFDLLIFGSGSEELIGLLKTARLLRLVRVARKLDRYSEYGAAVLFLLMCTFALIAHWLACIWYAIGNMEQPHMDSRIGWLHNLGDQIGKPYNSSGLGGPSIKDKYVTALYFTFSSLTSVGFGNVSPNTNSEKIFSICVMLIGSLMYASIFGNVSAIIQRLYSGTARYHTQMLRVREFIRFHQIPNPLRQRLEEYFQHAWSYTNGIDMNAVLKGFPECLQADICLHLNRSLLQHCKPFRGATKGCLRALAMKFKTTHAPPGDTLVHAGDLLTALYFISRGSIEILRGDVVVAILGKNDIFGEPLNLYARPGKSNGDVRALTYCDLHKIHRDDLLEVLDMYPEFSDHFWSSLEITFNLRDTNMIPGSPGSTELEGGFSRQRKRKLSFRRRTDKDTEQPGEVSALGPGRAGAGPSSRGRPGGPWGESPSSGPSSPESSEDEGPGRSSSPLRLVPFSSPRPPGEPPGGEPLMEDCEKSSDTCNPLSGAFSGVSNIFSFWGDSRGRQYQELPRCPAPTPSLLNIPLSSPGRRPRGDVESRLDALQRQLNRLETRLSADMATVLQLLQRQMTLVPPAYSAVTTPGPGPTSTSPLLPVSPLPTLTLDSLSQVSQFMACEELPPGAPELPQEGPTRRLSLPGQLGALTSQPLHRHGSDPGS
- Experimental protocol: Human Ether-a-go-go-Related Gene (hERG) channel small molecule antagonists: fluorescence cell-based qHTS assay (AID 1671200);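 also: hERG-expressing U2OS cells given a thallium stimulus after FluxOR II dye loading; nearly all actives have a fitted effect of over 50% in size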
- Run parameters: hERG-U2OS cells, FluxOR thallium flux fluorescence; series mostly up to 76.8 µM
Inconclusive results are not listed. Activity calls are given as the source filed them. Calls follow the shape of the dose curve; as a rule, active = well fitted inhibition curve with a large enough effect in the repeat runs; inconclusive = weak or mixed curves; inactive = flat fitted curve, though single readings scatter.
Recorded metric: activity change, negative = inhibition

The following molecules have reported results that may help.
1) C=CC/C=C/C: inactive
2) CCCCSCCCC: inactive
3) Cc1ccc(C(=O)O)cc1[N+](=O)[O-]: inactive
4) CC1(C)[C@H]2CC[C@](C)(C2)[C@H]1O: inactive
5) CC(C)Cn1cnc2c1c(=O)n(C)c(=O)n2C: inactive

Read off the recorded activity change, negative = inhibition for "CC(C)(C)NC[C@H](O)COc1cccc2c1CCCC2=O"
inactive

Read off the recorded activity change, negative = inhibition for "COC(=O)CCCCC(=O)O"
inactive

Read off the recorded activity change, negative = inhibition for "CC(C)=CCC/C(C)=C/COC=O"
inactive

Read off the recorded activity change, negative = inhibition for "CC1(C)Cc2cccc(N)c2O1"
inactive

Read off the recorded activity change, negative = inhibition for "C=C(C)c1cccc(C(C)(C)N=C=O)c1"
inactive

Read off the recorded activity change, negative = inhibition for "CCCCOCCOC(=O)COc1ccc(Cl)cc1Cl"
inactive

###

- Tested on: Cytochrome P450 1A2 (Homo sapiens)
- Experimental protocol: Cytochrome P450 Family 1 Subfamily A Member 2 (CYP1A2) small molecule antagonists: luciferase reporter qHTS assay (AID 1671199); also: nearly all actives have a fitted effect of over 50% in size
- Run parameters: P450-Glo CYP1A2 enzyme, luciferin luminescence, 1 h; series mostly up to 115 µM
Results filed as inconclusive are left out. The source made the active and inactive calls. The call rests on the fitted dose curve; in most records, active means well fitted inhibition curve with a large enough effect in the repeat runs; inconclusive means weak or mixed curves; inactive means no such curve, though single readings can be large or run the other way.
The reply should be one of these categories: t (active), f (inactive)

Assay result, entry CCC(C)OC(C)CC (centres undefined) — outcome?
f

Assay result, entry CC(=O)O[C@@H]1CC2CCC1(C)C2(C)C (some centres undefined) — outcome?
f

Assay result, entry "CCCCCCCCCCCCCBr" — outcome?
t

Assay result, entry CCC(C)C(=O)OCCc1ccccc1 (centres undefined) — outcome?
f

###

- Experimental protocol: qHTS assay to test for compound auto fluorescence at 590 nm (red) in HEK293 cell free culture (AID 720683)
- Run parameters: cell-free medium autofluorescence, Ex540/Em590 red; series mostly up to 91.3 µM
Activity calls are given as the source filed them. Calls follow the shape of the dose curve; as a rule, active = well fitted curve in the direction sought with a large enough effect in the repeat runs; inconclusive = weak or mixed curves; inactive = flat fitted curve, though single readings scatter.
Recorded metric: fluorescence, % of fluorescent control

1) CCCC(=O)OC/C=C(\C)CCC=C(C)C: inactive
2) CCC(=O)CC: inactive
3) C=C(C)c1cccc(C(C)(C)N=C=O)c1: inactive

###

- Experimental protocol: qHTS assay to identify small molecule antagonists of the retinoid-related orphan receptor gamma (ROR-gamma) signaling pathway - cell viability counter screen (AID 1159520); also: nearly all actives have a fitted effect of over 50% in size
- Run parameters: Tet-on RORgamma CHO cells viability, ATP luminescence, 16 h; series mostly up to 92.4 µM
Inconclusive results are not listed. Calls of active or inactive are those of the source. Calls follow the shape of the dose curve; as a rule, active = well fitted cell-killing curve with a large enough effect in the repeat runs; inconclusive = weak or mixed curves, or effect the other way; inactive = no such curve, though single readings can be large or run the other way.
Recorded metric: activity, negative = cytotoxicity

1) COc1ccc2c(c1)c1c3n2CCN(C)C3=NCC1: inactive
2) Cc1ccc(C)c([N+](=O)[O-])c1: inactive
3) O=Cc1cc2ccccc2o1: inactive
4) COP(=O)(O)OP(=O)(O)OC: inactive
5) CN1CCOC(c2ccccc2)c2ccccc2C1 (stereo not drawn): inactive

Read off the recorded activity, negative = cytotoxicity for "C/C(CC(C)C)=N\O"
inactive

Read off the recorded activity, negative = cytotoxicity for "CC(=O)OC(C)=O"
inactive

Read off the recorded activity, negative = cytotoxicity for "Fc1ccccc1"
inactive

src = PubChem BioAssay (Tox21)
